# protocol description: Hydrolysis in DPBS transport media
# Assay type: physicochemical
# particulars: buffer, pH 7.4
endpoint: half-life (h)
Quick reminder: number only, in h, skip the unit.

Q: Recorded half-life of Cl.Nc1nc2c(ncn2COCCOC(=O)[C@@H](N)CC(=O)O)c(=O)[nH]1 [L-Asp-ACV] , please.
Result: 5.1

----------
# protocol description: Stability in ocular tissue homogenates: cornea
# Assay type: in vitro ADME
# particulars: rabbit, corneal homogenate supernatant, pH 7.4
Exercise: state measured half-life at 10 μg/mL for each of the compounds provided.

Q: Entry `Cl.Nc1nc2c(ncn2COCCOC(=O)[C@@H](N)CC(=O)O)c(=O)[nH]1` has what half-life at 10 μg/mL?
Result: 4.83 h

Q: Follow-up item: `Cl.Nc1nc2c(ncn2COCCOC(=O)[C@H](N)CC(=O)O)c(=O)[nH]1`
Result: 3.73 h

----------
# protocol description: Solution
# Assay type: physicochemical
# particulars: borate buffer, pH 9
endpoint: half-life at 50 μg/mL
Returns: string containing the number followed by the unit.

Q: I would be grateful if you could share the reported half-life at 50 μg/mL for Cl.Nc1nc2c(ncn2COCCOC(=O)[C@@H](N)CC(=O)O)c(=O)[nH]1 [L-Asp-ACV] .
Result: 5.6 h
